# target.under.test: M2pep receptor on M2 macrophages (identity unknown) (mouse)
# test.protocol: flow cytometry on murine M2 macrophages; apparent KD
No end group written: not given here. *: point of attachment. Biotin = O=C1N[C@H]2[C@H](CS[C@H]2CCCCC(=O)*)N1
measured.quantity: pKd
In plain terms, pKd is the concentration in mol/L turned into minus its base-10 logarithm.

Which pKd value is on record for YEQDPWGVKWWYGGGSKKK(Biotin)-NH2 [M2pepBiotin] ?
3.66
